The reported numbers originate from patent US8853230B2.

# MEASURED_TARGET: JAK2 (Homo sapiens)
# Construct: 5 μl of catalytic domain recombinant Kinase enzyme+Tyr peptide substrate (Invitrogen, Calif.)
# ASSAY_SUMMARY: Z'-LYTE kinase assay, JAK2 tyrosine phosphorylation activity
OBSERVED_PROPERTY: IC50

COMPOUND: COCC(=O)N(C)c1cccc(Nc2ncc(C(N)=O)c(NC(C)C)n2)c1
OBSERVED_PROPERTY: IC50
VALUE_REPORTED: 10 to 100 nM
//
COMPOUND: CC(=O)Nc1cccc(Nc2ncc(C(N)=O)c(NCC3CCN(C(=O)OC(C)(C)C)C3)n2)c1 (stereo not shown)
OBSERVED_PROPERTY: IC50
VALUE_REPORTED: 100 to 1000 nM
//
COMPOUND: CC(=O)Nc1cccc(Nc2ncc(C(N)=O)c(NCc3ccccn3)n2)c1
OBSERVED_PROPERTY: IC50
VALUE_REPORTED: 10 to 100 nM
//
COMPOUND: C[C@@H](Nc1nc(Nc2cccc(NC(=O)N3CCOCC3)c2)ncc1C(N)=O)c1ccccc1
OBSERVED_PROPERTY: IC50
VALUE_REPORTED: 1 to 10 nM

###

The reader will find reported IC50 values listed item by item below.
# MEASURED_TARGET: JAK2 (Homo sapiens, UniProt O60674)
# Construct: 5 μl of catalytic domain recombinant Kinase enzyme+Tyr peptide substrate (Invitrogen, Calif.)
# Sequence (O60674 849-1124 limits assumed): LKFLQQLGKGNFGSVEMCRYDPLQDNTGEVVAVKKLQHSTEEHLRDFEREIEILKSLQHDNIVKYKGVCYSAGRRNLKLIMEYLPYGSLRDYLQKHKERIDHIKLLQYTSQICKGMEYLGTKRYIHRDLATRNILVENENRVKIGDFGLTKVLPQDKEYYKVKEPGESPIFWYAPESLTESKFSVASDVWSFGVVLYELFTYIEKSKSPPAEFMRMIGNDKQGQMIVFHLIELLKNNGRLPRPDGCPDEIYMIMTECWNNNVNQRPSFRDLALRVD
# ASSAY_SUMMARY: Z'-LYTE kinase assay, JAK2 tyrosine phosphorylation activity
# Experimental: JAK and TYK2 tyrosine phosphorylation activity is measured using the Z′-LYTE™ Technology developed by Invitrogen Corporation (Carlsbad, Calif.). For JAK1, JAK2 and JAK3 the Z′-LYTE™ Kinase Assay Kit-Tyr6 Peptide (part number PV4122) was used. […] The Z′-LYTE™ biochemical assay employs a fluorescence resonance energy transfer (FRET) coupled-enzyme format and is based on the differential sensitivity of phosphorylated and non-phosphorylated peptides to proteolitic cleavage. […]

COMPOUND: CC(=O)Nc1cccc(Nc2ncc(C(N)=O)c(NCCN3CCCC3)n2)c1 [Example 63]
IC50: > 1000 nM

COMPOUND: COCC(=O)Nc1cccc(Nc2ncc(C(N)=O)c(NCc3c(F)ccc(F)c3F)n2)c1 [Example 58]
IC50: 1 to 10 nM

COMPOUND: COC(=O)Nc1cccc(Nc2ncc(C(N)=O)c(NCC(F)(F)F)n2)c1 [Example 4]
IC50: 10 to 100 nM

COMPOUND: CNC(=O)Nc1cccc(Nc2ncc(C(N)=O)c(NCc3ccccc3F)n2)c1 [Example 181]
IC50: 10 to 100 nM

###

# MEASURED_TARGET: Syk (Homo sapiens, UniProt P43405)
# ASSAY_SUMMARY: Syk IC50 (Table 1; method not given)
# Assay type: biochemical

COMPOUND: COc1ccc(CNc2nc(Nc3cccc(NC(C)=O)c3)ncc2C(N)=O)cc1
MEASURED_TARGET: Syk (Homo sapiens, UniProt P43405)
IC50: > 1000 nM

COMPOUND: COC(=O)Nc1cccc(Nc2ncc(C(N)=O)c(NC3CCCC3)n2)c1
MEASURED_TARGET: Syk (Homo sapiens, UniProt P43405)
IC50: 100 to 1000 nM

COMPOUND: COCC(=O)Nc1cccc(Nc2ncc(C(N)=O)c(NCc3ccc(C)cc3)n2)c1
MEASURED_TARGET: Syk (Homo sapiens, UniProt P43405)
IC50: > 1000 nM

COMPOUND: COC(=O)Nc1cc(Nc2ncc(C(N)=O)c(NCc3ccccc3)n2)ccc1Cl
MEASURED_TARGET: Syk (Homo sapiens, UniProt P43405)
IC50: > 1000 nM

COMPOUND: NC(=O)c1cnc(Nc2cccc(NC(=O)C3CCC3)c2)nc1NCc1ccccc1
MEASURED_TARGET: Syk (Homo sapiens, UniProt P43405)
IC50: > 1000 nM

COMPOUND: CC(=O)Nc1cccc(Nc2ncc(C(N)=O)c(NCCc3ccccc3)n2)c1
MEASURED_TARGET: Syk (Homo sapiens, UniProt P43405)
IC50: 100 to 1000 nM

COMPOUND: NC(=O)c1cnc(Nc2cccc(NC(=O)C3CC3)c2)nc1NCC(F)(F)F
MEASURED_TARGET: Syk (Homo sapiens, UniProt P43405)
IC50: 100 to 1000 nM

COMPOUND: NC(=O)c1cnc(Nc2cccc(NC(=O)C3CCC3)c2)nc1NC1CCCC1
MEASURED_TARGET: Syk (Homo sapiens, UniProt P43405)
IC50: 100 to 1000 nM

COMPOUND: COC(CNc1nc(Nc2cccc(NC(C)=O)c2)ncc1C(N)=O)c1ccccc1 (stereo not drawn)
MEASURED_TARGET: Syk (Homo sapiens, UniProt P43405)
IC50: 100 to 1000 nM

COMPOUND: CC(=O)Nc1cccc(Nc2ncc(C(N)=O)c(NC(C)C)n2)c1
MEASURED_TARGET: Syk (Homo sapiens, UniProt P43405)
IC50: 100 to 1000 nM

COMPOUND: NC(=O)c1cnc(Nc2cccc(NC(=O)C3CC3)c2)nc1NCc1ccccc1
MEASURED_TARGET: Syk (Homo sapiens, UniProt P43405)
IC50: > 1000 nM

COMPOUND: CC(=O)Nc1cccc(Nc2ncc(C(N)=O)c(NC[C@@H](O)c3ccccc3)n2)c1
MEASURED_TARGET: Syk (Homo sapiens, UniProt P43405)
IC50: > 1000 nM

COMPOUND: CCNc1nc(Nc2cccc(NC(C)=O)c2)ncc1C(N)=O
MEASURED_TARGET: Syk (Homo sapiens, UniProt P43405)
IC50: 100 to 1000 nM

COMPOUND: NC(=O)c1cnc(Nc2cccc(NC(=O)N3CCCC3)c2)nc1NC1CCCC1
MEASURED_TARGET: Syk (Homo sapiens, UniProt P43405)
IC50: > 1000 nM

COMPOUND: CC(=O)Nc1cccc(Nc2ncc(C(N)=O)c(N[C@H](CO)c3ccccc3)n2)c1
MEASURED_TARGET: Syk (Homo sapiens, UniProt P43405)
IC50: > 1000 nM

COMPOUND: C[C@@H](Nc1nc(Nc2cccc(NC(=O)N3CC[C@H](O)C3)c2)ncc1C(N)=O)c1ccccc1
MEASURED_TARGET: Syk (Homo sapiens, UniProt P43405)
IC50: > 1000 nM

COMPOUND: CNC(=O)Nc1cccc(Nc2ncc(C(N)=O)c(NCc3ccccc3)n2)c1
MEASURED_TARGET: Syk (Homo sapiens, UniProt P43405)
IC50: > 1000 nM

COMPOUND: CC(=O)Nc1cccc(Nc2ncc(C(N)=O)c(N[C@@H](CO)CC(C)C)n2)c1
MEASURED_TARGET: Syk (Homo sapiens, UniProt P43405)
IC50: > 1000 nM

###

# MEASURED_TARGET: UniProt:P43405
# ASSAY_SUMMARY: Syk IC50 (Table 1; method not given)
# Assay type: biochemical
The reader will find reported IC50 values listed item by item below.

COMPOUND: CC(=O)Nc1cccc(Nc2ncc(C(N)=O)c(NCc3ccc(Cl)cc3)n2)c1 [Example 69]
IC50: > 1000 nM
//
COMPOUND: CC(=O)Nc1cccc(Nc2ncc(C(N)=O)c(N[C@H](CO)Cc3ccccc3)n2)c1 [Example 76]
IC50: > 1000 nM
//
COMPOUND: COCC(=O)Nc1cccc(Nc2ncc(C(N)=O)c(NCc3ccc(Cl)c(Cl)c3)n2)c1 [Example 46]
IC50: > 1000 nM
//
COMPOUND: CC(=O)Nc1cccc(Nc2ncc(C(N)=O)c(NCCN3CCOCC3)n2)c1 [Example 80]
IC50: > 1000 nM
//
COMPOUND: CC(=O)Nc1cccc(Nc2ncc(C(N)=O)c(NC3CCOCC3)n2)c1 [Example 75]
IC50: > 1000 nM
//
COMPOUND: COCC(=O)N(C)c1cccc(Nc2ncc(C(N)=O)c(NC3CCCC3)n2)c1 [Example 89]
IC50: > 1000 nM
//
COMPOUND: CNC(=O)CNc1nc(Nc2cccc(NC(C)=O)c2)ncc1C(N)=O [Example 72]
IC50: > 1000 nM
//
COMPOUND: CN(C)C(=O)Nc1cccc(Nc2ncc(C(N)=O)c(NC3CCCC3)n2)c1 [Example 35]
IC50: 100 to 1000 nM
//
COMPOUND: CC(=O)Nc1cccc(Nc2ncc(C(N)=O)c(NCc3c(F)ccc(F)c3F)n2)c1 [Example 59]
IC50: 100 to 1000 nM
//
COMPOUND: NC(=O)c1cnc(Nc2ccc(F)c(NC(=O)N3CCC3)c2)cc1NCc1cccc(F)c1 [Example 305]
IC50: > 1000 nM
//
COMPOUND: CC(=O)Nc1cccc(Nc2ncc(C(N)=O)c(NC[C@H](C)O)n2)c1 [Example 82]
IC50: 100 to 1000 nM
//
COMPOUND: CNC(=O)Nc1cccc(Nc2ncc(C(N)=O)c(NC3CCCC3)n2)c1 [Example 34]
IC50: 100 to 1000 nM
//
COMPOUND: COCC(=O)N(C)c1cccc(Nc2ncc(C(N)=O)c(NCc3ccccc3)n2)c1 [Example 90]
IC50: > 1000 nM
//
COMPOUND: CCOC(=O)Nc1cccc(Nc2ncc(C(N)=O)c(NCc3ccccc3)n2)c1 [Example 31]
IC50: > 1000 nM
//
COMPOUND: C[C@@H](Nc1nc(Nc2cccc(NC(=O)N3CC=CC3)c2)ncc1C(N)=O)c1ccccc1 [Example 121]
IC50: > 1000 nM
//
COMPOUND: CC(=O)Nc1cccc(Nc2ncc(C(N)=O)c(NCC3CCCN(C(=O)OCc4ccccc4)C3)n2)c1 (centres unmarked) [Example 115]
IC50: > 1000 nM
//
COMPOUND: CC(=O)N(C)c1cccc(Nc2ncc(C(N)=O)c(NCc3ccccc3)n2)c1 [Example 79]
IC50: > 1000 nM
